tgt: T1, human CD81 mutant V135A (human, UniProt P60033 1-236, limits assumed)
T1 construct: as m30; not shown: C-terminal V5 and 6xHis tags
T1 sequence: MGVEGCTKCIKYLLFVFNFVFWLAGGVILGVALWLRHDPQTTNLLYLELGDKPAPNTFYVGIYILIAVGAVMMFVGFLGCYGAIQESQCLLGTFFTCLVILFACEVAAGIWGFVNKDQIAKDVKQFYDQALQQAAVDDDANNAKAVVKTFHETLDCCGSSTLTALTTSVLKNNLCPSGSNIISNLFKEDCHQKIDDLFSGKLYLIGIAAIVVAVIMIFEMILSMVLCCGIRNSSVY
assay.explanation: ELISA
binders and their reported relative binding affinity
recorded.metric: relative binding affinity

binder="002-F05 (antibody, human IgG4 S228P, lambda, V domains shown, IgG4 S228P) VH: EVQLLESGGGLVQPGGSLRLSCAASGFTFSSNYMSWVRQAPGKGLEWVSYISSSSTYTDYADSVKGRFTISRDNSKNTLYLQMNSLRAEDTAVYYCARYSYGRDDFDYWGQGTLVTVSS VL: QSVLTQPASASGTPGQRVTISCTGSTSNIGAGYDTHWYQQLPGTAPKLLIYGNSNRPSGVPDRFSGSKSGTSASLAISGLRSEDEADYYCQSYDTNLNVWVFGGGTKLTVLG" recorded_metric="relative binding affinity" reported="< 20%"
binder="002-C09 (antibody, human IgG4 S228P, lambda, V domains shown, IgG4 S228P) VH: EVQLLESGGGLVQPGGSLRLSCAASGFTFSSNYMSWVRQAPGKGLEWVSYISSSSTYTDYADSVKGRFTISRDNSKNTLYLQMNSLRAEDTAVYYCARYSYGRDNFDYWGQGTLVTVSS VL: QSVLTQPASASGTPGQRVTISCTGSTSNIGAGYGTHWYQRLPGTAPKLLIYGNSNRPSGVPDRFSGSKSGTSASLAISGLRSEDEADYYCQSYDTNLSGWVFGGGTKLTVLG" recorded_metric="relative binding affinity" reported="< 20%"
binder="002-A07 S115A (antibody, human IgG4 S228P, lambda, V domains shown, IgG4 S228P; glycosylation site mutant of 002-A07 VL) VH: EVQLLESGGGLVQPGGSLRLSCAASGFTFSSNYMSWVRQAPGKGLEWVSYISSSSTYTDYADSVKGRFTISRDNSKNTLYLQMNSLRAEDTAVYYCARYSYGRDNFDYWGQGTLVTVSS VL: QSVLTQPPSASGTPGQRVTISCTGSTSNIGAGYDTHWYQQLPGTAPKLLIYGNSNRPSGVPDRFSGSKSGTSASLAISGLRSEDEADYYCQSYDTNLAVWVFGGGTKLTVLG" recorded_metric="relative binding affinity" reported="< 20%"
